- MEASURED TARGET: T1, NOV1401
- T1 construct: It was amine-coupled to the chip in SPR, and used soluble and biotinylated in SET; also called anti-FXI/FXIa antibody NOV1401; anti-Factor XI/FXIa antibody NOV1401
- T1 sequence (VH, as listed by the source, chain 1 of 2): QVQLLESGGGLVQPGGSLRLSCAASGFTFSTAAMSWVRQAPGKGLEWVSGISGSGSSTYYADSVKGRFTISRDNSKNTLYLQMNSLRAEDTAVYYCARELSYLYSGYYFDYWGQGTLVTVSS
- T1 sequence (VL, as listed by the source, chain 2 of 2): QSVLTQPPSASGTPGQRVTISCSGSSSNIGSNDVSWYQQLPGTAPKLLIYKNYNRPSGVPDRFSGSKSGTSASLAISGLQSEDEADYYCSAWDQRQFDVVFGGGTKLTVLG
- ASSAY PROCEDURE: Solution equilibrium titration (SET), 1:1 fit, average
- Procedure: 14 serial (2×) dilutions of NOV1401 were prepared in sample buffer (PBS pH 7.4 containing 0.5% (w/v) BSA and 0.02% Tween 20) and a constant concentration of the anti-NOV1401 Fab or IgG was added to each NOV1401 concentration ranging from 40 pM to 240 pM. Optimal constant anti-NOV1401 Fab or IgG concentrations and optimal starting concentrations for NOV1401 dilution series were determined in pilot experiments. […] Average ECL-signals were calculated from duplicate measurements within each assay. […]
pKd by entry:
Note: pKd values are expressed as the negative base-10 logarithm of concentration in M.

Previously resolved entries follow.
IDT7 (Fab, V domains shown, Fab; also called anti-NOV1401 Fab IDT7) VH: QVQLVESGGGLVKPGGSLRLSCAASGFTFSSNAMHWVRQAPGKGLEWVGRIKSKTDGGTTDYAAPVKGRFTISRDDSKNTLYLQMNSLKTEDTAVYYCARDHYYYPFAYWGQGTLVTVSS VL: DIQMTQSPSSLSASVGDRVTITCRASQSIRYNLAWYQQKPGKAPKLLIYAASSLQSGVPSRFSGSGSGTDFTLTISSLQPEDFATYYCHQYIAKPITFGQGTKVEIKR = 9.02
IDT9 (Fab, V domains shown, Fab; also called anti-NOV1401 Fab IDT9) VH: QVQLVQSGAEVKKPGASVKVSCKASGYTFTNYYVHWVRQAPGQGLEWMGWINPYNGNTNYAQKFQGRVTMTRDTSISTAYMELSRLRSEDTAVYYCARGASSIRMSYYLDVWGQGTLVTVSS VL: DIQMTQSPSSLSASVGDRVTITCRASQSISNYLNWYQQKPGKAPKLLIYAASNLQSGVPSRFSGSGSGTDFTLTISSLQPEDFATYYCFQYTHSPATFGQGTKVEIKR = 9.17
IDT5 (Fab, V domains shown, Fab; also called anti-NOV1401 Fab IDT5) VH: QVQLVESGGGLVKPGGSLRLSCAASGFTFSSAAVHWVRQAPGKGLEWVGRIKSKADAGTTDYAAPVKGRFTISRDDSKNTLYLQMNSLKTEDTAVYYCARDSPSISSYSIPYFSGMDVWGQGTLVTVSS VL: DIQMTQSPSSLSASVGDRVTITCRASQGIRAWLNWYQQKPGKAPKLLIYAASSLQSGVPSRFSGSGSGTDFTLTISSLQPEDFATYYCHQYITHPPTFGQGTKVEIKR = 9.85
IDT10 (Fab, V domains shown, Fab; also called anti-NOV1401 Fab IDT10) VH: QVQLVQSGAEVKKPGASVKVSCKASGYTFTNYYVHWVRQAPGQGLEWMGWINPYSGNTNYAQKFQGRVTMTRDTSISTAYMELSRLRSEDTAVYYCARGASSIRMSYYLDVWGQGTLVTVSS VL: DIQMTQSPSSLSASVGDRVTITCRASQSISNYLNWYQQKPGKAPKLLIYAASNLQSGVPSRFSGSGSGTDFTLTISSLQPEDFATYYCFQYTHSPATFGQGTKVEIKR = 8.92

API: the following record is the query input.
What value of pKd has been recorded for this entry: IDT8 (Fab, V domains shown, Fab; also called anti-NOV1401 Fab IDT8) VH: QVQLVESGGGLVKPGGSLRLSCAASGFTFSSNAMHWVRQAPGKGLEWVGRIKSKTSGGTTDYAAPVKGRFTISRDDSKNTLYLQMNSLKTEDTAVYYCARDHYYYPFAYWGQGTLVTVSS VL: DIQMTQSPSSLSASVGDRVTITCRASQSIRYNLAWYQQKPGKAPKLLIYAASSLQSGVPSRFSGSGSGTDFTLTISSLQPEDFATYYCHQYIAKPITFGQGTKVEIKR 9.80
